- Test system: primary rat microglia
- Protocol details: Cell toxicity (dead cells, size <150 μm2) in coated fibrin (cFib) assay;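 also: share of dead cells sized under 150 µm2 at 10 µM in fibrin-stimulated microglia HTS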
- Test parameters: primary microglia HTS, fibrin stimulation; decreased size (<150 μm^2) as marker of toxicity
// reported Fibrin % cell toxicity for each item listed

Compound	Fibrin % cell toxicity
COc1ccccc1OCC(O)COC(N)=O (centres unmarked) [Methocarbamol]	0%
CCN[C@@H]1C[C@H](N)[C@@H](O[C@H]2OC(CN)=CC[C@H]2N)[C@H](O)[C@H]1O[C@H]1OC[C@](C)(O)[C@H](NC)[C@H]1O.CCN[C@@H]1C[C@H](N)[C@@H](O[C@H]2OC(CN)=CC[C@H]2N)[C@H](O)[C@H]1O[C@H]1OC[C@](C)(O)[C@H](NC)[C@H]1O.O=S(=O)(O)O.O=S(=O)(O)O.O=S(=O)(O)O.O=S(=O)(O)O.O=S(=O)(O)O [Netilmicin Sulfate]	1%
COc1nc(N)nc2c1ncn2[C@@H]1O[C@H](CO)[C@@H](O)[C@@H]1O [Nelarabin]	0%
CC(C)CCCC(C)N (centres unmarked) [Octodrine]	0%
Cc1cc2c(OCC(CNC(C)(C)C)OC(=O)c3ccccc3)cccc2[nH]1 (centres unmarked) [Bopindolol]	6%
CN1CCCN=C1COC(=O)C(O)(c1ccccc1)C1CCCCC1 (centres unmarked) [Oxyphencyclimine]	1%
CC(=O)Oc1cc(C(C)C)c(OCCN(C)C)cc1C [Moxisylyte]	0%
N[C@H](C(=O)O)[C@@H]1CC(Cl)=NO1 [Acivicin]	2%

----------
- Tested on: LPS-induced microglia activation
- Protocol details: Image-based assay of LPS-induced microglia activation (HTS and dose response)
- Format: cell-based, rat
- Test parameters: Rattus norvegicus, Microglia, dose response, LPS-induced microglia activation; read-out: LPS IC50
pIC50: −log10 of the molar value.

Compound	pIC50
CN1CCN2c3ncccc3Cc3ccccc3C2C1 (stereo not drawn) [Mirtazapine, reference compound]	< 4.70
Cc1cc(NC(=O)C2=C(O)c3ccccc3S(=O)(=O)N2C)no1 [Isoxicam, reference compound]	< 4.70
CC1(C)O[C@@H]2C[C@H]3[C@@H]4C[C@H](F)C5=CC(=O)C=C[C@]5(C)[C@@]4(F)[C@@H](O)C[C@]3(C)[C@]2(C(=O)CO)O1 [Fluocinolone acetonide, reference compound]	> 9.00

----------
Entries annotated with measured inhibition at 10 µM
- System: fibrin-induced microglia activation
- Protocol details: Image-based assay of fibrin-induced microglia activation (HTS and dose response)
- Format: cell-based, rat
- Test parameters: Rattus norvegicus, Microglia, primary microglia HTS, fibrin stimulation, compounds at 10 μM; read-out: Fibrin % inhibition
Experimental endpoint: inhibition at 10 µM

In [3]: df
Out[3]:
                                   molecule                target_or_test_system  meas_value
0    O=c1[nH]cnc2c1ncn2[C@H]1CC[C@@H](CO)O1  fibrin-induced microglia activation         -8%
1  O=c1oc2c(O)c(O)cc3c(=O)oc4c(O)c(O)cc1c4c23  fibrin-induced microglia activation         -5%
2    CC(=O)Nc1ccc(OC(C)=O)cc1 [Diacetamate]  fibrin-induced microglia activation        -25%
3                        CC(=O)Nc1cccc(O)c1  fibrin-induced microglia activation          4%

----------
- Test system: fibrin-induced microglia activation
- Protocol details: Image-based assay of fibrin-induced microglia activation (HTS and dose response)
- Type: cell-based, rat
- Test parameters: Rattus norvegicus, Microglia, dose response, fibrin-induced microglia activation; read-out: Fibrin IC50
Structures can show the parent of a compound that is named as a salt.

Molecule	IC50
CNC(C)(C)Cc1ccccc1 [Mephentermine sulfate, reference compound]	> 20 µM
NS(=O)(=O)c1cc(C2(O)NC(=O)c3ccccc32)ccc1Cl (centres unmarked) [Chlorthalidone, reference compound]	> 20 µM
Nc1ccc(S(=O)(=O)Nc2cnc3ccccc3n2)cc1 [Sulfaquinoxaline sodium, reference compound]	> 20 µM
CC(=O)OCC(=O)[C@@]1(O)CC[C@H]2[C@@H]3CCC4=CC(=O)CC[C@]4(C)[C@@]3(F)[C@@H](O)C[C@@]21C [Fludrocortisone acetate, reference compound]	< 0.001 µM
CC1(C)O[C@@H]2C[C@H]3[C@@H]4C[C@H](F)C5=CC(=O)C=C[C@]5(C)[C@H]4[C@@H](O)C[C@]3(C)[C@]2(C(=O)CO)O1 [Flunisolide, reference compound]	< 0.001 µM
c1ccc2[nH]c(-c3cscn3)nc2c1 [Thiabendazole, reference compound]	> 20 µM
CC(=O)OCC(=O)[C@@]12N=C(C)O[C@@H]1C[C@H]1[C@@H]3CCC4=CC(=O)C=C[C@]4(C)[C@H]3[C@@H](O)C[C@@]12C [Deflazacort, reference compound]	< 0.001 µM
Cc1cc(-n2c(=O)[nH]c(=O)n(C)c2=O)ccc1Oc1ccc(SC(F)(F)F)cc1 [Toltrazuril, reference compound]	> 20 µM

----------
- Test system: primary rat microglia
- Protocol details: Cell toxicity (dead cells, size <150 μm2) in coated fibrin (cFib) assay;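 also: share of dead cells sized under 150 µm2 at 10 µM in fibrin-stimulated microglia HTS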
- Test parameters: primary microglia HTS, 10 μM, fibrin assay, cell size <150 μm^2 as marker of toxicity
Where a name gives a salt, the structure may show the parent alone.
Property: Fibrin % cell toxicity; scope: individual compounds

Compound	Target or test system	Readout units	Fibrin % cell toxicity
CN(C/C=C/C#CC(C)(C)C)Cc1cccc2ccccc12 [Terbinafine, Terbinafine Hydrochloride]	primary rat microglia	%	0
CC(=O)N(c1onc(C)c1C)S(=O)(=O)c1ccc(N)cc1	primary rat microglia	%	1
CNCC(O)c1ccc(O)cc1 (centres unmarked) [Synephrine]	primary rat microglia	%	0
Cn1cnc2c1c(=O)[nH]c(=O)n2C	primary rat microglia	%	0
CC(C)C[C@H](NC(=O)[C@@H](Cc1c[nH]c2ccccc12)NC(=O)[C@H](Cc1ccc(O)cc1)NC(=O)[C@H](CO)NC(=O)[C@H](Cc1c[nH]c2ccccc12)NC(=O)[C@H](Cc1c[nH]cn1)NC(=O)[C@@H]1CCC(=O)N1)C(=O)N[C@@H](CCCNC(=N)N)C(=O)N1CCC[C@H]1C(=O)NCC(N)=O	primary rat microglia	%	1
Oc1cc(Cl)ccc1Oc1ccc(Cl)cc1Cl	primary rat microglia	%	1
CC(C)(C)NCC(O)c1ccccc1Cl.Cl (centres unmarked) [Tulobuterol, Tulobuterol Hydrochloride]	primary rat microglia	%	0
CCS(=O)(=O)CCn1c([N+](=O)[O-])cnc1C	primary rat microglia	%	0
CC(C)(C)NC[C@H](O)COc1nsnc1N1CCOCC1 [Timolol Maleate]	primary rat microglia	%	0
Cc1ccc(C(=O)Nc2ccc(S(=O)(=O)O)c3cc(S(=O)(=O)O)cc(S(=O)(=O)O)c23)cc1NC(=O)c1cccc(NC(=O)Nc2cccc(C(=O)Nc3cc(C(=O)Nc4ccc(S(=O)(=O)O)c5cc(S(=O)(=O)O)cc(S(=O)(=O)O)c45)ccc3C)c2)c1	primary rat microglia	%	0
O=C1C(O)=C(O)C(=O)C(O)=C1O	primary rat microglia	%	0

----------
- System: fibrin- and LPS-induced microglia activation
- Protocol details: cells
- Format: cell-based, rat
- Test parameters: quadrant by fibrin and LPS inhibition in HTS of 1907 compounds
Where a name gives a salt, the structure may show the parent alone.
Experimental endpoint: Quadrant (FIG. 5b)

>>> print(df.to_string())
                                   molecule  experimental_endpoint  meas_value
0                        CCCCCCc1ccc(O)cc1O     Quadrant (FIG. 5b)          Q4
1       CCn1nc(C(=O)O)c(=O)c2cc3c(cc21)OCO3     Quadrant (FIG. 5b)          Q2
2  COc1ccc(C(=O)NCc2ccc(OCCN(C)C)cc2)cc1OC [Itopride, Itopride Hydrochloride]     Quadrant (FIG. 5b)          Q4

----------
- System: primary rat microglia
- Protocol details: Cell toxicity (dead cells, size <150 μm2) in coated fibrin (cFib) assay;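 also: share of dead cells sized under 150 µm2 at 10 µM in fibrin-stimulated microglia HTS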
- Test parameters: primary microglia HTS, fibrin assay, dead cells (size <150 μm2)
Counter-ions that a name gives are not always drawn.
Experimental endpoint: Fibrin % cell toxicity (%)

Molecule	Readout units	Meas value
C=C(NC(=O)C(=C)NC(=O)c1csc(C2=N[C@@H]3c4csc(n4)[C@H]4NC(=O)c5csc(n5)[C@H]([C@](C)(O)[C@@H](C)O)NC(=O)[C@H]5CSC(=N5)/C(=C/C)NC(=O)[C@H]([C@@H](C)O)NC(=O)c5csc(n5)[C@]3(CC2)NC(=O)[C@H](C)NC(=O)C(=C)NC(=O)[C@H](C)NC(=O)[C@H]([C@@H](C)CC)N[C@@H]2C=Cc3c([C@H](C)O)cc(nc3[C@H]2O)C(=O)O[C@@H]4C)n1)C(N)=O	%	64
Cc1cnc(C(=O)O)c[n+]1[O-]	%	1
O=C1CN2Cc3c(ccc(Cl)c3Cl)N=C2N1 [Anagrelide]	%	1
CC(CC(C(N)=O)(c1ccccc1)c1ccccc1)N(C)C (stereo not shown) [Aminopentamide Sulfate]	%	1
CC(=O)CC(c1ccc([N+](=O)[O-])cc1)c1c(O)c2ccccc2oc1=O (stereo not shown)	%	0
CC1(C)S[C@@H]2[C@H](NC(=O)[C@H](NC(=O)N3CCNC3=O)c3ccccc3)C(=O)N2[C@H]1C(=O)O [Azlocillin]	%	1
CC(=O)NCCCS(=O)(=O)[O-].CC(=O)NCCCS(=O)(=O)[O-].[Ca+2] [Acamprosate Calcium]	%	1

FYI, the data here is from patent US20210330611A1.
